Test system: MS2 coat protein
METHOD: apparent KD of MS2 coat protein; designed switch direction (-1 OFF switch, 1 ON switch): -1; higher = weaker reporter binding
PROTOCOL CONDITIONS: Eterna round: R95; input ligand: none
MEASURE: apparent KD of MS2 coat protein

Use the examples below as a reference point.
>>> result("UAACCUAUUGUCAGGAUAUCUACGUGGUAUCAUGAGGAGAAGGGACAUGAGGAUCACCCAUGUGGAAGGGAAAA [Beques] (puzzle: Brourd's mod of Exclusion 4)")
"48.3 nM"
>>> result("GGUUGGCGAGGAUAUACAUGAGGAUCACCCAUGUGAGAGAAUAAAGUGAGGAAGAAAAGUAGAAGGCGCUGACA [Mat - Exclusion 3 - Mod of Salish D8] (puzzle: Exclusion 3)")
"40.7 nM"
>>> result("CGAGAGCGAGGAUAUACACAACACCUCACUGUCAAGAAAGGACAUGAGGAUCACCCAUGUAGAAGGUGCAAAGC [Xecerevear] (puzzle: Exclusion 2)")
"326 nM"
>>> result("AGUACUAACACGAAAGUGUUCGUACAAUAAGCUUGUGAAACAUGAGGAUCACCCAUGUCCUCAUAAGCUCGUCUUAU [salish99_TOv2_r3_037] (puzzle: Sensor v3, turn-off variant 2)")
"15.6 nM"
>>> result("GAGGAACAUGAGGAUCACCCAUGUAAGGAUAUGCAAAGCGAGGUAGUAGAAGGAGAAGGCAGAAGGUACACGGA [JR_Exclu1_Sub075] (puzzle: Exclusion 1)")
"45.3 nM"
>>> result("CCGCAAAUGGAGGAUAUCGUAUCGGAUACGAUACGAGAAGGCCAAACAUGAGGAUCACCCAUGUGUCCUAGCGG [Fiskers Ex 6 - 37] (puzzle: Exclusion 6)")
"18.6 nM"
>>> result("GAUUAUGCGAGCUUUAGGGACAUGAGGAUCACCCAUGUUCGUCUUAUUGGUCUGGGUACACUAACAUACCUAAAUCU [JMF 22] (puzzle: Sensor v3, turn-off variant 1)")
"36.2 nM"
>>> result("AAGAAACAUGAGGAUCACCCAUGUGAGGAUAUGAGUAAGAAAAGAAAAGAAAGAAGAUUCAGAAGGCACAAAGG [salish99-ex1_r3_057] (puzzle: Exclusion 1)")
"73.2 nM"

Which apparent KD of MS2 coat protein is reported for this sequence? AGUACUAACACGAAAGUGUUAGUACAAUAAGCUUGUGGAACAUGAGGAUCACCCAUGUCCUCAUAAGCUCGUCUUAU [JL-sv3-2.12 mat747 mod] (puzzle: Sensor v3, turn-off variant 2)
16.9 nM

Proceed to CUGGUCCGAGGAUAUAUUAUGUGAUACAUGAGGAUCACCCAUGUUAUAUGAUGGAUAUAAAUAGAAGGCGGACUAG [Mat - Exclusion 5 - JL mod - D66] (puzzle: Exclusion 5)
35.8 nM

Proceed to GGUUGACAUGAGGAUCACCCAUGUGAGGAUAUGCGAGAGAAAAAAGUGAGGAAGAAAUGCAGAAGGCGCUGUCG [salish99-ex1_r3_009] (puzzle: Exclusion 1)
433 nM
